Attribution: PubChem BioAssay (Tox21)

biological target: Androgen receptor (Homo sapiens) (UniProt P10275); assay: qHTS assay to identify small molecule antagonists of the androgen receptor (AR) signaling pathway using the MDA cell line (AID 743042; also: nearly all actives have a fitted effect of over 55% in size); conditions: MDA-kb2 AR-luc, MMTV luciferase, R1881 antagonist, 16 h; series mostly up to 70.3 µM
Sequence (P10275 whole entry, looked up): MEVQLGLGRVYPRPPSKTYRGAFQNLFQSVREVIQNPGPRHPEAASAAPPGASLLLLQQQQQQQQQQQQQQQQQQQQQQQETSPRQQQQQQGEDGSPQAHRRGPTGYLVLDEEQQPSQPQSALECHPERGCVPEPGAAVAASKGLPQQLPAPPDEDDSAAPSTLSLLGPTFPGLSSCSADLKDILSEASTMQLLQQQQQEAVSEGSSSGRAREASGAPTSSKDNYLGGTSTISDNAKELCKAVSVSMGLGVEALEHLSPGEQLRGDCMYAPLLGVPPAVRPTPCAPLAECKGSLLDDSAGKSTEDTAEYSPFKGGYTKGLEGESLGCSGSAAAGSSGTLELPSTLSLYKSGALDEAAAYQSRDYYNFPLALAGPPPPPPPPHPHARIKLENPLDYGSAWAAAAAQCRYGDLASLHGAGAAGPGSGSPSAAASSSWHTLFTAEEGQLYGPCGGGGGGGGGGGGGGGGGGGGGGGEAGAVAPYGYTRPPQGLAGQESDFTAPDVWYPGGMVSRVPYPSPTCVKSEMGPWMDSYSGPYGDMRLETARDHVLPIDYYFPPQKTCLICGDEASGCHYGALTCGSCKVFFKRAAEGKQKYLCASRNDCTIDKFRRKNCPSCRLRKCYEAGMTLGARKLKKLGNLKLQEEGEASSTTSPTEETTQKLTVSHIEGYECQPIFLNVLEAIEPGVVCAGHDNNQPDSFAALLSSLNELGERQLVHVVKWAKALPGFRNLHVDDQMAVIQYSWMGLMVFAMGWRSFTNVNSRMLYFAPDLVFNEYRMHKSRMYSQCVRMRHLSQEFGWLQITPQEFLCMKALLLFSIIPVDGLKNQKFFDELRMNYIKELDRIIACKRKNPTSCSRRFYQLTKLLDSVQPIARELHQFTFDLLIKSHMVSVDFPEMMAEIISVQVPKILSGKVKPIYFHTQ
Results filed as inconclusive are left out. Calls of active or inactive are those of the source. Calls follow the shape of the dose curve; as a rule, active = well fitted inhibition curve with a large enough effect in the repeat runs; inconclusive = weak or mixed curves, or effect the other way; inactive = no such curve, though single readings can be large or run the other way.
Your answer must be one of the following: yes = active, no = inactive

Solved entries:
- Compound: "CC[C@H]1OC(=O)C[C@@H](O)[C@H](C)[C@@H](O[C@@H]2O[C@H](C)[C@@H](O)[C@H](N(C)C)[C@H]2O)[C@@H](CCN2C[C@H](C)C[C@H](C)C2)C[C@@H](C)C(=O)/C=C/C(C)=C/[C@@H]1CO[C@@H]1O[C@H](C)[C@@H](O)[C@@H](OC)[C@H]1OC"
  Label: "no"
- Compound: "O=C(O)[C@@H]1C[C@H](CP(=O)(O)O)CCN1"
  Label: "no"

I would be grateful if you could indicate the recorded call for CC[C@H](C)C(=O)O[C@H]1CCC=C2C=C[C@H](C)[C@H](CC[C@@H]3C[C@@H](O)CC(=O)O3)[C@H]21 .
no

And then CC(=O)[C@]1(O)Cc2c(O)c3c(c(O)c2[C@@H](O[C@H]2C[C@H](N)[C@H](O)[C@H](C)O2)C1)C(=O)c1ccccc1C3=O , what is it?
yes

And then Cc1ccc2nc(-c3ccc(N)cc3)sc2c1S(=O)(=O)O , what is it?
no

And then CC(C)NCC1CCc2cc(CO)c([N+](=O)[O-])cc2N1 (configuration not stated) , what is it?
no

And then CN[C@@H]1[C@@H](O[C@H]2O[C@H](CO)[C@@H](N)[C@H](O)[C@H]2O)O[C@H]2C[C@@H](N)[C@@H](O[C@H]3[C@H](O)[C@@H](O)[C@H](N)C[C@@H]3N)O[C@@H]2[C@@H]1O , what is it?
no

###

experiment: qHTS assay to identify aromatase inhibitors - cell viability counter screen (AID 743084); details: MCF-7 aro ERE viability, CellTiter-Fluor, 24 h; series mostly up to 70.3 µM;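 also: cells stimulated with testosterone during compound exposure; nearly all actives have a fitted effect of over 55% in size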
Records with an inconclusive call do not appear. Calls of active or inactive are those of the source. Calls come from the whole dose curve; as a rule, active = well fitted cell-killing curve with a large enough effect in the repeat runs; inconclusive = weak or mixed curves, or effect the other way; inactive = no such curve, though single readings can be large or run the other way.
Your answer must be one of the following: active, inactive

Solved entries:
- Molecular String: "c1ccc2cc3c4ccccc4c4ccccc4c3cc2c1"
  Label: "inactive"
- Molecular String: "CC(C)(C)c1ccc2c(S(=O)(=O)O)c(C(C)(C)C)ccc2c1"
  Label: "inactive"
- Molecular String: "NCc1cccc(C2CCN(C(=O)c3ccc(C#Cc4ccccc4F)o3)CC2)c1"
  Label: "active"

I would be grateful if you could indicate the recorded call for CC(C)(O/N=C(\C(=O)N[C@@H]1C(=O)N2C(C(=O)[O-])=C(C[n+]3ccccc3)CS[C@H]12)c1csc(N)n1)C(=O)O .
inactive

And then CCCOC(=O)c1ccc(O)cc1 , what is it?
inactive

###

Test: A CellTox Green Cytotoxicity Assay to monitor cytotoxicity in HEK293 cells - 32 hour (AID 1224881); also: % is scaled to controls: 0 for no effect and ±100 for the full control effect; nearly all actives have a fitted effect of over 40% in size
Settings: CellTox Green fluorescence; series mostly up to 76.8 µM
Excerpt: National Center for Advancing Translational Sciences [NCATS] NIH Chemical Genomics Center [NCGC] U.S. Environmental Protection Agency [EPA] National Institutes of Environmental Health Sciences [NIEHS] National Toxicology Program [NTP] Cell-based models are critical for drug discovery. […] Viable cells produce no appreciable increases in fluorescence. Therefore, the fluorescence signal produced by the binding interaction with dead cell DNA is proportional to cytotoxicity. […]
Inconclusive results are not listed. Calls of active or inactive are those of the source. Calls follow the shape of the dose curve; as a rule, active = well fitted activation curve with a large enough effect in the repeat runs; inconclusive = weak or mixed curves; inactive = flat fitted curve, though single readings scatter.
Measurement Label: cytotoxicity increase

Worked examples, 4 molecules total:
- Molecule: "C=CC(=O)OCCOC1C2CCC1C1CC=CC12 (stereo not given)"
  Recorded Result: "-0.486% [at 15.8 µM] (inactive)"
- Molecule: "C=C[Si](C)(C)Cl"
  Recorded Result: "-7.47% [at 6.97 µM] (inactive)"
- Molecule: "CCCCCCCCCCCCS(=O)(=O)Cl"
  Recorded Result: "-1.06% [at 15.8 µM] (inactive)"
- Molecule: "O=C(O)C[C@H](O)C[C@H](O)/C=C/c1c(C2CC2)nc2ccccc2c1-c1ccc(F)cc1"
  Recorded Result: "-0.515% [at 15.8 µM] (inactive)"

Lab note: next molecule to report on.
Give the measured cytotoxicity increase of COc1cc(C(C)C)ccc1C .
-4.81% [at 15.8 µM] (inactive)

###

test: Caspase-3/7 induction in CHO-K1 cells by small molecules, qHTS assay (AID 1346980); settings: CHO-K1 caspase-3/7 induction, Caspase-Glo luminescence, 17 h; series mostly up to 92.4 µM; also: % is scaled to controls: 0 for no effect and ±100 for the full control effect; nearly all actives have a fitted effect of over 15% in size
Calls of active or inactive are those of the source. The call rests on the fitted dose curve; in most records, active means well fitted activation curve with a large enough effect in the repeat runs; inconclusive means weak or mixed curves; inactive means flat fitted curve, though single readings scatter.
Your answer must be one of the following: active, inactive

Solved entries:
- Molecule: "CC(CC(C)(C)C)CC(C)(C)CC(C)(C)C (configuration not stated)"
  Label: "inactive"
- Molecule: "C=C(C)CCO"
  Label: "inactive"
- Molecule: "Cc1ccc2sc3cccc(C)c3c2c1"
  Label: "inactive"
- Molecule: "Nc1cccnc1N"
  Label: "inactive"
- Molecule: "O=C1CCC(=O)N1"
  Label: "inactive"
- Molecule: "SC1CCCCC1"
  Label: "inactive"
- Molecule: "CCCCCCCC/C=C\\CCCCCCCC(=O)N(CCO)CCO"
  Label: "inactive"
- Molecule: "NC(=O)c1ccccc1Cl"
  Label: "inactive"
- Molecule: "CC(=O)Nc1ccc(N=Nc2cc(C)ccc2O)cc1"
  Label: "inactive"
- Molecule: "CC1=CC[C@@H](C(C)(C)O)CC1"
  Label: "inactive"

I would be grateful if you could indicate the recorded call for C=CC(C)(C)O .
inactive

And then c1ccc2cc3c4ccccc4c4ccccc4c3cc2c1 , what is it?
inactive

And then O=C(CCCCCCCCc1cccnc1)N1CCC(C=C(c2ccccc2)c2ccccc2)CC1 , what is it?
inactive

###

assay: qHTS assay to test for compound auto fluorescence at 460 nm (blue) in HEK293 cells (AID 720678); conditions: blue autofluorescence 405/460 nm; series mostly up to 46 µM; also: % is scaled to controls: 0 for no effect and ±100 for the full control effect
The source made the active and inactive calls. Calls follow the shape of the dose curve; as a rule, active = well fitted curve in the direction sought with a large enough effect in the repeat runs; inconclusive = weak or mixed curves; inactive = flat fitted curve, though single readings scatter.
Measurement Label: outcome

- Molecule: "C(=C\\c1ccncc1)/c1ccccc1"
  outcome: "inactive"
- Molecule: "COC(=O)[C@H]1[C@H]2C[C@H]3c4[nH]c5ccccc5c4CCN3C[C@H]2CC[C@@H]1O"
  outcome: "inactive"
- Molecule: "CC(Cc1ccc(O)c(O)c1)C(C)Cc1ccc(O)c(O)c1 (stereo not given)"
  outcome: "inactive"
- Molecule: "Nc1cc(Cl)c(NC2=NCCN2)c(Cl)c1"
  outcome: "inactive"
- Molecule: "O=C(O)C[C@H](O)C[C@H](O)/C=C/c1c(C2CC2)nc2ccccc2c1-c1ccc(F)cc1"
  outcome: "inactive"

Lab note: next molecule to report on.
Give the measured outcome of CCCCCCCCCC[N+](C)(CCCCCCCCCC)CCC[Si](OC)(OC)OC .
inactive

###

test: A CellTox Green Cytotoxicity Assay to monitor cytotoxicity in HepG2 cells - 16 hour (AID 1224876); conditions: CellTox Green fluorescence; series mostly up to 76.8 µM; also: nearly all actives have a fitted effect of over 45% in size
Records with an inconclusive call do not appear. The source made the active and inactive calls. Calls follow the shape of the dose curve; as a rule, active = well fitted activation curve with a large enough effect in the repeat runs; inconclusive = weak or mixed curves; inactive = flat fitted curve, though single readings scatter.
Your answer must be one of the following: true (1) = active, false (0) = inactive

- Compound: "Cc1cccc2c1ccc1ccccc12"
  Label: "false (0)"
- Compound: "Oc1cccc2c(O)cccc12"
  Label: "false (0)"
- Compound: "[Cl][Dy]([Cl])[Cl]"
  Label: "false (0)"
- Compound: "CC(Cc1ccc(O)c(O)c1)C(C)Cc1ccc(O)c(O)c1 (stereo not given)"
  Label: "true (1)"
- Compound: "CC/C=C(\\C)C=O"
  Label: "false (0)"
- Compound: "Nc1ccc(Oc2cccc(Oc3ccc(N)cc3)c2)cc1"
  Label: "false (0)"
- Compound: "Cc1ccc(C2OC[C@@H]3OC(c4ccc(C)cc4)O[C@H]([C@H](O)CO)[C@@H]3O2)cc1 (stereo not given in full)"
  Label: "false (0)"
- Compound: "CN1CC[C@H](c2c(O)cc(O)c3c(=O)cc(-c4ccccc4Cl)oc23)[C@H](O)C1"
  Label: "false (0)"

Below: the item to evaluate.
I would be grateful if you could indicate the recorded call for CCCCCCCC/C=C\CCCCCCCC(=O)N(CCO)CCO .
false (0)

###

target: Cytochrome P450 1A2 (Homo sapiens) (UniProt P05177); experiment: Cytochrome P450 Family 1 Subfamily A Member 2 (CYP1A2) small molecule antagonists: luciferase reporter qHTS assay (AID 1671199); conditions: P450-Glo CYP1A2 enzyme, luciferin luminescence, 1 h; series mostly up to 115 µM; also: nearly all actives have a fitted effect of over 50% in size; also: potency is read from the fitted curve at half-maximal effect
Sequence (P05177 whole entry, looked up): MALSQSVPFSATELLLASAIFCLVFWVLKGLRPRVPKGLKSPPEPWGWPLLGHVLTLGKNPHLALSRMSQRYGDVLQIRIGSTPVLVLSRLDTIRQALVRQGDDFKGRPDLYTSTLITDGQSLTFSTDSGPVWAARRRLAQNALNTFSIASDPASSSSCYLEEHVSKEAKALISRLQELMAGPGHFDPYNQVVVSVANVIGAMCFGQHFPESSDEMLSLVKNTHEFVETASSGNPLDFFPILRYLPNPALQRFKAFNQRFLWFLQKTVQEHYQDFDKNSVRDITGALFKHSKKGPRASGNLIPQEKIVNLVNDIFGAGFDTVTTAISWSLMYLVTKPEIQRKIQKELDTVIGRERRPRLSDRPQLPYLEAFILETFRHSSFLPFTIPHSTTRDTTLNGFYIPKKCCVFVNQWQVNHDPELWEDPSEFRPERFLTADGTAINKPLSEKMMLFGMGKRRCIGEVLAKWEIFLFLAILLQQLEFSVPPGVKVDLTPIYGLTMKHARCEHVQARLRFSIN
Results filed as inconclusive are left out. Activity calls are given as the source filed them. Calls follow the shape of the dose curve; as a rule, active = well fitted inhibition curve with a large enough effect in the repeat runs; inconclusive = weak or mixed curves; inactive = no such curve, though single readings can be large or run the other way.
Measurement Label: Potency

- Compound: "O=C1OCc2ccccc21"
  Potency: "inactive"
- Compound: "CC(C)C(=O)C(C)C"
  Potency: "inactive"
- Compound: "C=C1CC[C@H]2O[C@]2(C)CC[C@@H]2[C@@H]1CC2(C)C"
  Potency: "inactive"
- Compound: "CCCCCCCCOC(=O)c1cc(O)c(O)c(O)c1"
  Potency: "71 µM (active)"
- Compound: "COc1c(Br)cc(Br)c(C)c1Br"
  Potency: "3.56 µM (active)"

Give the measured Potency of C/C(=C\c1ccc(C(=O)O)cc1)c1ccc2c(c1)C(C)(C)CCC2(C)C .
inactive

And then Clc1ccc2c(Cl)ccnc2c1 , what is it?
5.64 µM (active)
